tested on: Tyrosine-protein kinase ABL1 (Homo sapiens), P00519 [H396P]; conditions: at 1 µM
The label depends only on inhibition: yes if it is at least 7%, no if it is smaller.

Does the compound `ON=C1CCc2cc(-c3nc(C4CCNCC4)[nH]c3-c3ccncc3)ccc21` have recorded inhibition that is 7% or more?
no

Does the compound `COc1cccc(-n2ncc3c(N/N=C/c4ccc(C)cc4)ncnc32)c1` have recorded inhibition that is 7% or more?
yes

Does the compound `Cc1ccc2c(-c3ccnc(Nc4ccc5c(c4)OCCO5)n3)c(-c3ccc(C(F)(F)F)cc3)nn2n1` have recorded inhibition that is 7% or more?
no

Does the compound `FC(F)(F)c1ccc(-c2nn3ncccc3c2-c2ccnc(Nc3ccc4c(c3)OCCO4)n2)cc1` have recorded inhibition that is 7% or more?
yes

Does the compound `NS(=O)(=O)c1ccc(-c2cc3ccncc3cc2OCc2ccccc2)cc1` have recorded inhibition that is 7% or more?
no

Does the compound `Cc1cc(Cl)cc2c1NC(=O)C2=NNc1ccc(S(N)(=O)=O)cc1` have recorded inhibition that is 7% or more?
yes

Does the compound `COc1cc(/C=N/Nc2ncnc3c2cnn3C(C)C)ccc1O` have recorded inhibition that is 7% or more?
yes

Does the compound `CC(C)c1ccc(Nc2nccc(-c3cnn4ncccc34)n2)cc1` have recorded inhibition that is 7% or more?
yes

Does the compound `OCc1ccc(-c2nc(-c3ccccn3)c(-c3ccc4c(c3)OCO4)[nH]2)cc1` have recorded inhibition that is 7% or more?
no

Does the compound `Cc1ccc2c(-c3ccnc(Nc4cccc(C(F)(F)F)c4)n3)c(-c3ccccc3)nn2n1` have recorded inhibition that is 7% or more?
yes

Does the compound `CN(c1ccc(NC(=O)Nc2ccc(OC(F)(F)F)cc2)cc1)c1ccnc(Nc2cccc(S(N)(=O)=O)c2)n1` have recorded inhibition that is 7% or more?
yes

src = ChEMBL document CHEMBL1961873
